Protocol text: Apparent volume of distribution during terminal phase in BALB/c RAG2-/- gammaC-/- mouse at 10 mg/kg, ip measured up to 24 hrs by UPLC-triple quadrupole MS analysis
Assay type: ADME, organism-based
Experimental conditions: in vivo, read-out: Vz/F

| Item smiles | Vd/F [L] |
| --- | --- |
| COc1cc2nc(-c3ccc(C)o3)cc(NCC3CCN(c4ncc(C(=O)NO)cn4)CC3)c2cc1OC | 4.6 |

---

Protocol text: Stability of the compound in human pooled hepatocytes assessed as parent compound remaining incubated for 60 mins
Assay type: ADME, cell-based, Hepatocyte
Experimental conditions: read-out: Stabilty

| Item smiles | Unit string | remaining at 1 h |
| --- | --- | --- |
| COc1cc2nc(-c3ccc(C)o3)cc(NCC3CCN(c4ncc(C(=O)NO)cn4)CC3)c2cc1OC | % | 50.8 |
